- ASSAYED SYSTEM: UniProt P21447
- Sequence (P21447 whole entry, looked up): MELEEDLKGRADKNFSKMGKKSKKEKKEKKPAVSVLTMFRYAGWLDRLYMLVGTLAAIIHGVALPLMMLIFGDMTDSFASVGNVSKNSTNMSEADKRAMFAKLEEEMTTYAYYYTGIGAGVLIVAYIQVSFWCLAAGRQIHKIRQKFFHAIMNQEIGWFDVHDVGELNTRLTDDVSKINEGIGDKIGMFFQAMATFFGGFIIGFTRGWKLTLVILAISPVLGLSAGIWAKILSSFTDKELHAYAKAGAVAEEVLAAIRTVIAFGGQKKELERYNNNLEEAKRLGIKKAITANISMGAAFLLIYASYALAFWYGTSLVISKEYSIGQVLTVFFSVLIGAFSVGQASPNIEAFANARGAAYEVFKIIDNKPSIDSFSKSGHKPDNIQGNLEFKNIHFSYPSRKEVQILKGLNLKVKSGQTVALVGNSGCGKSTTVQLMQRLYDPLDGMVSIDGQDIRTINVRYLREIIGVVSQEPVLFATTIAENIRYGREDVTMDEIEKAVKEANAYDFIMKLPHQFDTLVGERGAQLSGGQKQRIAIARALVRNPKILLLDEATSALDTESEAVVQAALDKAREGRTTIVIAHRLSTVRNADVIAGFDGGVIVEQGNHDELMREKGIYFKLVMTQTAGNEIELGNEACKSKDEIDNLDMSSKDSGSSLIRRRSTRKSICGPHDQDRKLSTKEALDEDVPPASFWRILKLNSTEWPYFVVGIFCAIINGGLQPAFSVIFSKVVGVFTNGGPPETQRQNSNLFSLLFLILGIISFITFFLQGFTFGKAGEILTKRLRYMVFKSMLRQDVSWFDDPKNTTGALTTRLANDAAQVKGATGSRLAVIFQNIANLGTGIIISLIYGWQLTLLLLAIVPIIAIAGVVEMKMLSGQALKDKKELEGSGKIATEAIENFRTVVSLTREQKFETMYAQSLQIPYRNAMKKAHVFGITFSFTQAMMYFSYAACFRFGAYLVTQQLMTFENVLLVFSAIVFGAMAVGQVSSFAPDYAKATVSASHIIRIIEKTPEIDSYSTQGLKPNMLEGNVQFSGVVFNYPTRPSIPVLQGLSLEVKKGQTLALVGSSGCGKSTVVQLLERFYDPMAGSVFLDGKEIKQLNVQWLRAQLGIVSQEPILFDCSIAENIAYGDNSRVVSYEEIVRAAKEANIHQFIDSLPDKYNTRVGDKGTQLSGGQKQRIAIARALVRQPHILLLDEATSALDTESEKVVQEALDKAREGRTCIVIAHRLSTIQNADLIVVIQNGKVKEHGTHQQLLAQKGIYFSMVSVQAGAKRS
- METHOD: Inhibition of verapamil-stimulated ATPase activity of mouse cysteine-less MDR3
Reported pIC50 by item:
Scale explanation: pIC50 corresponds to minus log10 of a concentration expressed in moles per litre.

Worked cases, pIC50 given:
So what's the measured pIC50 for this one? `C[N+](C)=c1ccc2c(-c3ccccc3)c3cc4c5c(c3[se]c-2c1)CCCN5CCC4.F[P-](F)(F)(F)(F)F`
6.55

Ok, now `CN(C)c1ccc2c(-c3ccc(C(=S)N4CCCCC4)s3)c3ccc(=[N+](C)C)cc-3sc2c1`
4.49

Ok, now `CN(C)c1ccc2c(-c3ccc(N4CCOCC4)cc3)c3ccc(=[N+](C)C)cc-3[se]c2c1`
4.64

For the next question, use this molecule.
So what's the measured pIC50 for this one? `CN(C)c1ccc(-c2c3ccc(=[N+](C)C)cc-3[se]c3cc(N(C)C)ccc23)cc1`
4.68
